system: Staphylococcus aureus; test: Bactericidal activity against methicillin/erythromycin/tetracycline-resistant Staphylococcus aureus USA300 NRS384 clinical isolate after 24 hrs; assay type: functional; conditions: USA300 NRS384, 24 h
Kindly supply the reported log10 MBC values for the records listed here.
Please interpret these as log10 of MBC where MBC is in µg/mL.

Return log10 MBC (reported value) for this molecule: CCCCCCCOc1ccc(-c2nc(C)c(/C(C)=N/NC(=N)N)s2)cc1
0.30

Return log10 MBC (reported value) for this molecule: CC(=O)NC[C@H]1CN(c2ccc(N3CCOCC3)c(F)c2)C(=O)O1 [LINEZOLID]
1.20

Return log10 MBC (reported value) for this molecule: C/C(=N\NC(=N)N)c1sc(-c2ccc(OC3CCCC3)cc2)nc1C
0.90

Return log10 MBC (reported value) for this molecule: CCCCCCOc1ccc(-c2nc(C)c(/C(C)=N/NC(=N)N)s2)cc1
0.90

Return log10 MBC (reported value) for this molecule: C/C(=N\NC(=N)N)c1sc(-c2ccc(OCCCC(C)C)cc2)nc1C
1.51

Return log10 MBC (reported value) for this molecule: CN[C@H](CC(C)C)C(=O)N[C@H]1C(=O)N[C@@H](CC(N)=O)C(=O)N[C@H]2C(=O)N[C@H]3C(=O)N[C@H](C(=O)N[C@H](C(=O)O)c4cc(O)cc(O)c4-c4cc3ccc4O)[C@H](O)c3ccc(c(Cl)c3)Oc3cc2cc(c3O[C@@H]2O[C@H](CO)[C@@H](O)[C@H](O)[C@H]2O[C@H]2C[C@](C)(N)[C@H](O)[C@H](C)O2)Oc2ccc(cc2Cl)[C@H]1O [VANCOMYCIN]
0.00

Return log10 MBC (reported value) for this molecule: CCCCCCCCCOc1ccc(-c2nc(C)c(/C(C)=N/NC(=N)N)s2)cc1
1.20
